- assay comment: Compound stability in cryopreserved human hepatocytes
- Assay type: in vitro ADME
- test parameters: pooled cryopreserved human hepatocytes, read-out: Human Hep Clint
The molecules listed here are annotated with their CLint scaled at 1 µM.
reported metric: CLint scaled at 1 µM

In [3]: df
Out[3]:
                                   molecule       reported_metric    result_value
0  N#CC1(Cc2ccc(F)cc2)CCN(C(=O)c2cccnc2-c2ccncc2)CC1 [Compound A14]  CLint scaled at 1 µM  < 18 mL/min/kg
1  N#CC1(Cc2ccc(F)cc2)CCN(C(=O)c2cccnc2-c2ccncn2)CC1 [Compound A6]  CLint scaled at 1 µM  < 18 mL/min/kg
2  N#CC1(Cc2ccccc2)CCN(C(=O)c2cccnc2-c2ccncc2)CC1 [Compound A32]  CLint scaled at 1 µM  < 18 mL/min/kg
